Ref: the supplement of paper PMC10065799

Test system: c-Src
assay-name: phosphorylation enrichment, bacterial display (enrichment ratio); higher = better substrate or ligand; peptides without Tyr show the background
Classification field. Basis: phosphorylation enrichment. Definitions: low interval (below 0.5), middle interval (0.5 to below 1), high interval (1 or more)

>  <monomer-sequence>
GDPTEYYITAI [IGSF22_Y501_S503I]

>  <experimental-target>
c-Src

>  <answer-label>
middle interval

$$$$
>  <monomer-sequence>
IMFTSYFLTIL [TAS2R16_Y239_V235M]

>  <experimental-target>
c-Src

>  <answer-label>
middle interval

$$$$
>  <monomer-sequence>
EVEPTYVVLYD [ERCC4_Y577_R576T]

>  <experimental-target>
c-Src

>  <answer-label>
high interval

$$$$
>  <monomer-sequence>
VVKLAYNENDN [CAMKK2_Y183]

>  <experimental-target>
c-Src

>  <answer-label>
low interval

$$$$
>  <monomer-sequence>
GYEEAYSVSKK [PAFAH1B1_Y28_F31S]

>  <experimental-target>
c-Src

>  <answer-label>
middle interval

$$$$
>  <monomer-sequence>
IPPRRYFRSGV [STAMBP_Y36]

>  <experimental-target>
c-Src

>  <answer-label>
middle interval

$$$$
>  <monomer-sequence>
MAQDIYRASYY [ALK_Y1278_R1275Q]

>  <experimental-target>
c-Src

>  <answer-label>
high interval

$$$$
>  <monomer-sequence>
FRKNTYNVKST [SYNE2_Y575_I574T_YF]

>  <experimental-target>
c-Src

>  <answer-label>
low interval

$$$$
>  <monomer-sequence>
FGVTLYPNSGE [MEP1A_Y472_R476G]

>  <experimental-target>
c-Src

>  <answer-label>
low interval

$$$$
>  <monomer-sequence>
TIMTDYNPNFC [ALK_Y1092_YF]

>  <experimental-target>
c-Src

>  <answer-label>
middle interval

$$$$
>  <monomer-sequence>
LITLVYGCSRQ [TMPRSS6_Y290_S288L]

>  <experimental-target>
c-Src

>  <answer-label>
high interval

$$$$
>  <monomer-sequence>
STTIHYNFMCN [TP53_Y234_C229S_YF]

>  <experimental-target>
c-Src

>  <answer-label>
low interval

$$$$
>  <monomer-sequence>
MVSLFYGTAIF [OR10C1_Y251_L255I]

>  <experimental-target>
c-Src

>  <answer-label>
high interval

$$$$
>  <monomer-sequence>
FSKTQYNQVPR [CXADR_Y318_S323R_YF]

>  <experimental-target>
c-Src

>  <answer-label>
low interval

$$$$
>  <monomer-sequence>
CPFNLYAEQLS [HGD_Y40_YF]

>  <experimental-target>
c-Src

>  <answer-label>
middle interval

$$$$
>  <monomer-sequence>
PNQRRYVYYYS [PTEN_Y174_S170N]

>  <experimental-target>
c-Src

>  <answer-label>
high interval

$$$$
>  <monomer-sequence>
GDAMLYYPSVS [GPR143_Y177_A173D]

>  <experimental-target>
c-Src

>  <answer-label>
high interval

$$$$
>  <monomer-sequence>
TIEDSYRKQVV [KRAS_Y40]

>  <experimental-target>
c-Src

>  <answer-label>
low interval

$$$$
>  <monomer-sequence>
LEFAKYGSLRG [RET_Y809_V804L_YF]

>  <experimental-target>
c-Src

>  <answer-label>
low interval

$$$$
>  <monomer-sequence>
RKRQFYLFKGK [RSPO4_Y112_C107R_YF]

>  <experimental-target>
c-Src

>  <answer-label>
middle interval

$$$$
>  <monomer-sequence>
YLQEIYNSNNQ [FGG_Y140]

>  <experimental-target>
c-Src

>  <answer-label>
high interval

$$$$
>  <monomer-sequence>
QSRSPYSSRHS [CDK13_Y415_R410Q]

>  <experimental-target>
c-Src

>  <answer-label>
middle interval

$$$$
>  <monomer-sequence>
SEDSEYFRAFE [CASQ2_Y178_K180R_YF]

>  <experimental-target>
c-Src

>  <answer-label>
middle interval

$$$$
>  <monomer-sequence>
FIATQYSLRPR [LBR_Y166_YF]

>  <experimental-target>
c-Src

>  <answer-label>
low interval

$$$$
>  <monomer-sequence>
RRIHSHRGHLW [VHL_Y112_Y112H]

>  <experimental-target>
c-Src

>  <answer-label>
middle interval

$$$$
>  <monomer-sequence>
IHTEFYDGLFP [BCR_Y561_K558T]

>  <experimental-target>
c-Src

>  <answer-label>
high interval

$$$$
>  <monomer-sequence>
GRDQPYSGTGD [TYRO3_Y828_A831T]

>  <experimental-target>
c-Src

>  <answer-label>
low interval

$$$$
>  <monomer-sequence>
KMMGRYEMFAR [UPB1_Y362_T359M_YF]

>  <experimental-target>
c-Src

>  <answer-label>
low interval

$$$$
>  <monomer-sequence>
PGPPGYCDSSH [COL12A1_Y3043_Q3048H]

>  <experimental-target>
c-Src

>  <answer-label>
middle interval

$$$$
>  <monomer-sequence>
RISPEYKQNEI [GJB1_Y243_L239I]

>  <experimental-target>
c-Src;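 note: frequency after pTyr selection over input frequency; kinase dosed for 20-30% of maximal phosphorylation in three min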

>  <answer-label>
middle interval

$$$$
>  <monomer-sequence>
IMITDYLLLFR [INSR_Y87]

>  <experimental-target>
c-Src;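 note: frequency after pTyr selection over input frequency; kinase dosed for 20-30% of maximal phosphorylation in three min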

>  <answer-label>
low interval

$$$$
>  <monomer-sequence>
QTPVLYAMLFH [MPZ_Y220_D224Y_YF]

>  <experimental-target>
c-Src;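 note: frequency after pTyr selection over input frequency; kinase dosed for 20-30% of maximal phosphorylation in three min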

>  <answer-label>
high interval

$$$$
>  <monomer-sequence>
KILGTYYETGS [PAX2_Y72_R71T]

>  <experimental-target>
c-Src;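 note: 11-residue human phosphosite peptides and single-mutation variants displayed on the E. coli surface, counted by deep sequencing, each peptide's frequency after selection divided by its frequency in the unselected input library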;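 note: frequency after pTyr selection over input frequency; kinase dosed for 20-30% of maximal phosphorylation in three min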

>  <answer-label>
high interval

$$$$
